Provenance of the data: ChEMBL document CHEMBL1159163

- Target or test system: Histamine H2 receptor (Rattus norvegicus, UniProt P25102)
- Sequence (P25102 whole entry): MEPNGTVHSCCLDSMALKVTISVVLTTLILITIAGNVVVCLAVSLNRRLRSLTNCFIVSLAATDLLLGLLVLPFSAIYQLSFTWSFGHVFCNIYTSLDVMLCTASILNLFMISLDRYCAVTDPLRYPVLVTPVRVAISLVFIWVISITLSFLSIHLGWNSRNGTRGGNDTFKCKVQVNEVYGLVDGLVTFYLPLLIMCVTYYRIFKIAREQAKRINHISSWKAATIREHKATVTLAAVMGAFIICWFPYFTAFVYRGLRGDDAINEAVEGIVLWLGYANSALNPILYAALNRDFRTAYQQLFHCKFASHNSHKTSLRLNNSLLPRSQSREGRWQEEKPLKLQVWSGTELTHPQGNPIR
- Test: Affinity to the Histamine H2 receptor was determined expressed in CHO cell using [125I]iodoaminopotentidine as radioligand
- Type: cell-based
Observable: pKd
Lab note — pKd values are minus log10 of concentrations in M.

Look over these answered cases.
[
  {
    "Smiles representation": "NCCc1c[nH]cn1",
    "pKd": 3.93
  },
  {
    "Smiles representation": "Cc1nc(N)sc1CCN",
    "pKd": 4.94
  }
]

Moving on to the next compound.
## Input Report measured pKd; entry is Cc1nc(N)[se]c1CCN
## Output 5.01
